Hello, the source for this data is patent US20240368302A1, in case you need it.

// reported pKd per item
- Test Target: T1, human TROP2-Fc protein antigen (human, UniProt P09758 27-274)
- T1 construct: extracellular domain; also called CRD + TY-1 + CPD; not shown: IgG Fc of the pFUSE-IgG plasmid
- T1 sequence (looked up): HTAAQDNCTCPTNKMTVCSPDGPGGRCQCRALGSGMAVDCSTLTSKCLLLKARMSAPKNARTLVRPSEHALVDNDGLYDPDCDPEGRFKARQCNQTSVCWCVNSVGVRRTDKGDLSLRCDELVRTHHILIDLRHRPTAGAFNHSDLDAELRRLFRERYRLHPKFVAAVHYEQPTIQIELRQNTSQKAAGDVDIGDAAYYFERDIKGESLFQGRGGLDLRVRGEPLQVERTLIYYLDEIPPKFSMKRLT
- Test Protocol: ELISA, coated human TROP2-Fc, Kd calculated from absorbance
pKd: −log10 of the molar value.

Binder	pKd
MY1530-5-54 (VHH, Expressed in E. coli WK6 from vector pMECS, purified on a nickel column; also called MY1530-5-54 VHH; anti-TROP2 single domain antibody) VHH: QVQLQESGGGSVQPGGSLRLSCVASGYTASSVCMAWFRQAPGKERELVAGYYHSGGTYYGDSVKGRFTASQDNAKNTLYLQMNSLKPEDTATYYCARARYPSSACGTSPSNYNIWGQGTQVTVSS	8.89
MY1530-1-26 (VHH, Expressed in E. coli WK6 from vector pMECS, purified on a nickel column; also called MY1530-1-26 VHH; anti-TROP2 single domain antibody) VHH: QVQLQESGGGSVQAGGSLRLSCVVSGYTTTRYSMAWFRQAPGKEREGVAGIDTDVLTTYKPSVEGRFTISRDSAKRTLYLQMNSLKPEDTAMYYCATGTGNFLALDPVWYNTWGQGTQVTVSS	8.31
MY1530-4-22 (VHH, Expressed in E. coli WK6 from vector pMECS, purified on a nickel column; also called MY1530-4-22 VHH; anti-TROP2 single domain antibody) VHH: QVQLQESGGGSVQAGGSLKLSCVVSGYTVSSVCMAWFRQAPGMERELVAGFYHSGGTYYGDSVKGRFTASQDNAKNTLYLQMNSLKPEDTATYYCARARYPSSACGTSPSNYNIWGQGTQVTVSS	8.89
MY1530-4-28 (VHH, Expressed in E. coli WK6 from vector pMECS, purified on a nickel column; also called MY1530-4-28 VHH; anti-TROP2 single domain antibody) VHH: QVQLQESGGGSVQAGGSLRLSCAASGFSVSTTWMHWVRQAPGKGLEWVSRIAINDHTFYAESVKGRFTMSTDNAKNTVYLQMTSLKPEDTAVYYCSPYSDYRIRGQGTQVTVSS	8.92
